Every entry's value here was drawn from ChEMBL document CHEMBL4888484.

Test system: Plasmodium falciparum
procedure_details: Primary screen in NF54 nanoGlo assay, in single point, at 2uM, 72h; a lower Z score goes with more inhibition
Assay type: functional, Erythrocyte
conditions: timepoint 72 hour
About 540 (0.36%) of roughly 150,000 compounds showed an effect of 50% or more. For the sample, strong results were picked, then their nearest neighbours and some compounds at random.
assay_endpoint: Z score

- Cc1noc(C(F)(F)F)c1C(=O)NCC1(C2(O)CCC2)CC1: 1.69
- O=C(Nc1cccc(Cl)c1)Nc1nnc2cccc(Cl)n12: 2.03
- Nc1nnnn1CC(=O)N[C@H]1CC(=O)Nc2ccccc21: -1.71
- S=c1cc(-c2ccccc2)n(CCCc2ccccc2)c2c1CCCC2: 0.85
- C[C@@]1(C(=O)NC2CCCCCCC2)Cn2c(ccc2-c2ccccc2)C(=O)N1Cc1ccco1: -0.83
- CC1CN(C(CNCc2cnn(C)c2)c2cccs2)CCO1 (stereo unspecified): 0.92
